What viability at 28.5 h, 10 µM was measured for each of the following?
assay: in vitro; details: human, hela cells, % viability
Write it as a number; the unit % goes unstated.

Query: Identify viability at 28.5 h, 10 µM associated with the compound CCC(NC(=O)c1cc(CC(C)C)nn1CC)c1cn2cccnc2n1 (stereo not drawn)
Response: 101

Query: Identify viability at 28.5 h, 10 µM associated with the compound CC(C)Oc1ccc(C(=O)C2=C(O)C(=O)N(Cc3cccnc3)C2c2cccc([N+](=O)[O-])c2)cc1 (stereo not drawn)
Response: 89.2

Query: Identify viability at 28.5 h, 10 µM associated with the compound NS(=O)(=O)c1ccc(NC(=O)CC2SC(=O)NC2=O)cc1 (stereo not drawn)
Response: 98.9

Query: Identify viability at 28.5 h, 10 µM associated with the compound `COCCn1c(=O)n(Cc2ccccc2)c2cccnc21`
Response: 91

Query: Identify viability at 28.5 h, 10 µM associated with the compound `CCNC(=O)Nc1ccc2c(-c3ccccc3)ccnc2n1`
Response: 95.6

Query: Identify viability at 28.5 h, 10 µM associated with the compound `Oc1cccc(OCCOc2nc3ccccc3nc2N2CCCC2)c1`
Response: 84.1

Query: Identify viability at 28.5 h, 10 µM associated with the compound Cc1ccc(C2(c3ccc(C)cc3)CC2C(=O)Nc2ccccc2[N+](=O)[O-])cc1 (stereo not drawn)
Response: 93.3

Query: Identify viability at 28.5 h, 10 µM associated with the compound `COc1cccc(C2(NC(=O)CCn3cccn3)CCCC2)c1`
Response: 94.5

Query: Identify viability at 28.5 h, 10 µM associated with the compound `COc1cccc(C(=O)N2CCC(Cc3cccc(-c4cccs4)c3)(C(N)=O)CC2)c1`
Response: 97.8

---

assay: in vitro; design: Viability of infected HeLa host cells, resazurin conversion, bulk resorufin fluorescence relative to DMSO; conditions: human, hela cells; bulk resorufin, mean of 3
API: label(entry) gives True if the entry's viability at 28.5 h, 3 µM is strictly smaller than 90%; on equality or larger values it gives False.

Query: Is viability at 28.5 h, 3 µM of O=C(Nc1ccc(F)c(F)c1)NC1CCC2CN(CCOc3ccccc3)CC2C1 (stereo not drawn) [c9e] strictly below 90%?
Response: False

Query: Is viability at 28.5 h, 3 µM of O=C(CC1CCN(CCc2ccccc2)CC1)Nc1cccc(-n2cccn2)c1 [c4e] strictly below 90%?
Response: True

Query: Is viability at 28.5 h, 3 µM of Cn1cc(C(c2ccc(OCC(=O)O)cc2)c2cn(C)c3ccccc23)c2ccccc21 [c48e] strictly below 90%?
Response: False

Query: Is viability at 28.5 h, 3 µM of O=[N+]([O-])c1ccc(-n2cnc3ccccc32)c([N+](=O)[O-])c1 [c41e] strictly below 90%?
Response: False

Query: Is viability at 28.5 h, 3 µM of CNC(=S)N1CCN(c2nsc3ccccc23)CC1 [c6e] strictly below 90%?
Response: False

Query: Is viability at 28.5 h, 3 µM of O=C(CSc1nnc(-c2cccnc2)o1)c1ccccc1 [c35e] strictly below 90%?
Response: True

Query: Is viability at 28.5 h, 3 µM of O=C(CC1SC(Nc2ccc(O)cc2)=NC1=O)c1ccccc1 (stereo not drawn) [c13e] strictly below 90%?
Response: True

Query: Is viability at 28.5 h, 3 µM of O=C(NCCc1c[nH]c2ccc(Cl)cc12)c1c(F)ccc(Cl)c1F [c42e] strictly below 90%?
Response: False

Query: Is viability at 28.5 h, 3 µM of Cc1ccc2[nH]c3c(c2c1)CCOC31CCN(Cc2ccccc2-c2ccccc2)CC1 [c22e] strictly below 90%?
Response: True

Query: Is viability at 28.5 h, 3 µM of FC(F)(F)c1ccc(N2CCNCC2)nc1OCc1ccc2c(c1)OCCO2 [c46e] strictly below 90%?
Response: False

Query: Is viability at 28.5 h, 3 µM of O=C1Oc2nc3ccccc3cc2CN1C1CC1 [c1e] strictly below 90%?
Response: False

Query: Is viability at 28.5 h, 3 µM of CC(=O)N1CCc2sccc2C1c1ccccc1NCc1ccoc1 (stereo not drawn) [c28e] strictly below 90%?
Response: True

Query: Is viability at 28.5 h, 3 µM of COc1cccc(CNC(C(=O)O)c2ccc3c(c2)OCO3)c1 (stereo not drawn) [c40e] strictly below 90%?
Response: False

Query: Is viability at 28.5 h, 3 µM of CCOc1ccsc1C(=O)NC1Cc2ccccc2C1 [c16e] strictly below 90%?
Response: True
